Provide the recorded fold decrease in EC50 for the entries that follow.
# TARGET OF ASSAY: α/β TCR/CD3 complex on Jurkat, Clone E6-1 cells (human) (UniProt P07766)
# ASSAY TEXT: flow cytometry on Jurkat Clone E6-1 cells, Fab titration 10 µg/ml to 10 ng/ml; EC50 of MFI, fold decrease vs TPP-1374
Numbers only, in fold.

Please review the entries below; each comes with its answer.
| BINDER | PROPERTY MEASURED | READOUT UNIT | READOUT NUMBER |
| --- | --- | --- | --- |
| TPP-1392 Fab fragment (Fab, V domains shown) VH: EVQLVQSGAEVKKPGASVKVSCKASGYKFTSYVMHWVRQAPGQGLEWMGYINPRNDVTKYAEKFQGRVTLTSDTSTSTAYMELSSLRSEDTAVYYCARGSYYDYEGFVYWGQGTLVTVSS VL: QIQMTQSPSSLSASVGDRVTITCSATSSVSYMHWYQQKPGKAPKRWIYDTSKLARGVPSRFSGSGSGTDYTLTISSLQPEDAATYYCQQWSSNPLTFGGGTKVEIKR | fold decrease in EC50 | fold | 16.6 |
| TPP-1363 Fab fragment (Fab, V domains shown) VH: EVQLVQSGAEVKKPGASVKVSCKASGYKFTSYVMHWVRQAPGQGLEWMGYINPYKDVTKYAEKFQGRVTLTSDTSTSTAYMELSSLRSEDTAVYYCARGSYYDYEGFVYWGQGTLVTVSS VL: QIQMTQSPSSLSASVGDRVTITCSATSSVSYMHWYQQKPGKAPKRWIYDTSKLASGVPSRFSGSGSGTDYTLTISSLQPEDAATYYCQQWSSNPLTFGGGTKVEIKR | fold decrease in EC50 | fold | 7.3 |

Now for another entry.
Problem: Value lookup for fold decrease in EC50; key = TPP-1367 Fab fragment (Fab, V domains shown) VH: EVQLVQSGAEVKKPGASVKVSCKASGYKFTSYVMHWVRQAPGQGLEWMGYINPYNDVTKYAEKFQGRVTLTSDTSTSTAYMELSSLRSEDTAVHYCARGSYYDYEGFVYWGQGTLVTVSS VL: QIQMTQSPSSLSASVGDRVTITCSATSSVSYMHWYQQKPGKAPKRWIYDTSKLARGVPSRFSGSGSGTDYTLTISSLQPEDAATYYCQQWSSNPLTFGGGTKVEIKR
Result: 8.8
